Test system: human umbilical-vein endothelial cells (HUVEC)
assay-comment: Cell Migration Assay (CMA) Test, HUVEC (% relative to control)
Assay type: cell-based
condition-summary: Homo sapiens, HUVEC; 1 μg/ml; 24 hours; 60% or less = remarkable inhibition; read-out: CMA (% relative to control)
observation-type: activity at 1 µg/mL (%)
Value expressed in %; do not type the unit.

Take a look at these entries with their results.
molecule	activity at 1 µg/mL / %
CCCCCC[C@]12O[C@H]1C[C@@H]1C(C(=O)OC)=CO[C@@H](OC(=O)NC)[C@@H]12	99.4
CNC(=O)O[C@@H]1OC=C(C(=O)OCCc2ccccc2)[C@H]2C[C@@H]3O[C@]3(C)[C@H]12	101
CNC(=O)O[C@@H]1OC=C(C(=O)OC)[C@H]2C[C@@H]3O[C@]3(COC(C)=O)[C@@H]12	105

### Prompt Determine from records and report activity at 1 µg/mL for COC(=O)C1=COC(OC(=O)N(C)C)C2C1CC1OC12C (centres unmarked)
### Response 97.2

### Prompt Please give measured activity at 1 µg/mL of the following entry: `CNC(=O)OC[C@]12O[C@H]1C[C@@H]1C(C(=O)OC)=CO[C@@H](O)[C@@H]12`
### Response 87.1

* * *

Recorded activity at 1 µg/mL values for a group of molecules are listed next.
System: human umbilical-vein endothelial cells (HUVEC)
assay-comment: Cell Migration Assay (CMA) Test, HUVEC (% relative to control)
Type: cell-based
condition-summary: Homo sapiens, HUVEC; 1 μg/ml; 24 hours; 60% or less = remarkable inhibition; read-out: CMA (% relative to control)
Give a bare numeral; the unit % is implied.

Worked examples, 3 molecules total:
molecule	observation-type	result-number
CCCCCCNC(=O)C1=COC(OC(=O)NC)C2C1CC1OC12C (stereo not drawn) [compound 17]	activity at 1 µg/mL	94.4
CNC(=O)O[C@@H]1OC=C(C(=O)OC/C=C(\C)CCC=C(C)C)[C@H]2C[C@@H]3O[C@]3(C)[C@H]12 [compound 6]	activity at 1 µg/mL	106
CNC(=O)O[C@@H]1OC=C(C(=O)OC)[C@H]2C[C@H]3O[C@@]3(C)C12 (stereo in doubt) [Compound 57]	activity at 1 µg/mL	96

### Prompt Provide only the value of recorded activity at 1 µg/mL for CNC(=O)O[C@@H]1OC=C(C(=O)NCc2ccccc2)[C@H]2C[C@@H]3O[C@]3(C)[C@H]12 [compound 27]
### Response 94.5

### Prompt Return the recorded activity at 1 µg/mL value; entry: CCCCCCNC(=O)O[C@@H]1OC=C(C(=O)OC)[C@H]2C[C@@H]3O[C@]3(C)[C@H]12 [compound 33]
### Response 109

### Prompt For the molecule COC(=O)C1=CO[C@@H](OC(=O)N2CCOCC2)[C@@H]2[C@@H]1C[C@@H]1O[C@]21C [compound 38] , give its measured activity at 1 µg/mL value.
### Response 92.3

### Prompt Supply measured activity at 1 µg/mL of C=CCCOC(=O)C1=CO[C@@H](OC(=O)NC)[C@@H]2[C@@H]1C[C@@H]1O[C@]21C [compound 8] in your reply.
### Response 75.4

### Prompt Consider the molecule COC(=O)C1=CO[C@@H](OC(=O)NCCCl)[C@@H]2[C@@H]1C[C@@H]1O[C@]21C [compound 32] . State its measured activity at 1 µg/mL.
### Response 93

### Prompt State, in one line, measured activity at 1 µg/mL of CNC(=O)O[C@@H]1OCC(C(=O)OC)[C@H]2C[C@@H]3O[C@]3(C)C12 (stereo in doubt) [Compound 55]
### Response 97.8

### Prompt Identify activity at 1 µg/mL associated with the molecule CNC(=O)O[C@@H]1OC=C(C(=O)OC)[C@H]2C[C@@H]3O[C@]3(CCl)C12 (stereo in doubt) [compound 51]
### Response 102

### Prompt Return activity at 1 µg/mL (reported value) for this molecule: CNC(=O)OC1OC=C(C(=O)N2CCCCC2)C2CC3OC3(C)C12 (stereo not drawn) [compound 26]
### Response 84

### Prompt Report activity at 1 µg/mL for CNC(=O)O[C@@H]1OC=C(C(=O)NCCc2ccccc2)[C@H]2C[C@@H]3O[C@]3(C)[C@H]12 [compound 28]
### Response 94.3
